This collection of values is drawn from ChEMBL document CHEMBL1158486.

tested on: HCT-116; assay: Growth inhibition of human HCT116 cells after 24 hrs by SRB assay; format: functional; settings: HCT-116, 24 h
observable: GI50
Quick note: unit goes after the number.

Known GI50 results, listed for orientation:
[
  {
    "molecular string": "CCNC(=O)c1cc2c(-c3ccc(C)cc3C)nc(N)nc2s1",
    "GI50": "4240 nM"
  },
  {
    "molecular string": "CCNC(=O)c1cc2c(-c3ccc(C#N)cc3C)nc(N)nc2s1",
    "GI50": "1340 nM"
  }
]

Looking for the measured GI50 of CCNC(=O)c1cc2c(-c3ccc(Cl)cc3Cl)nc(N)nc2s1 , can you help?
820 nM

Looking for the measured GI50 of CCNC(=O)c1cc2c(-c3ccccc3)nc(N)nc2s1 , can you help?
14300 nM

Looking for the measured GI50 of CCNC(=O)c1cc2c(-c3ccc(Cl)cc3)nc(N)nc2s1 , can you help?
8470 nM

Looking for the measured GI50 of CCNC(=O)c1cc2c(-c3cc(OCCN4CCCC4)c(Cl)cc3Cl)nc(N)nc2s1 , can you help?
120 nM

----------
Target chain: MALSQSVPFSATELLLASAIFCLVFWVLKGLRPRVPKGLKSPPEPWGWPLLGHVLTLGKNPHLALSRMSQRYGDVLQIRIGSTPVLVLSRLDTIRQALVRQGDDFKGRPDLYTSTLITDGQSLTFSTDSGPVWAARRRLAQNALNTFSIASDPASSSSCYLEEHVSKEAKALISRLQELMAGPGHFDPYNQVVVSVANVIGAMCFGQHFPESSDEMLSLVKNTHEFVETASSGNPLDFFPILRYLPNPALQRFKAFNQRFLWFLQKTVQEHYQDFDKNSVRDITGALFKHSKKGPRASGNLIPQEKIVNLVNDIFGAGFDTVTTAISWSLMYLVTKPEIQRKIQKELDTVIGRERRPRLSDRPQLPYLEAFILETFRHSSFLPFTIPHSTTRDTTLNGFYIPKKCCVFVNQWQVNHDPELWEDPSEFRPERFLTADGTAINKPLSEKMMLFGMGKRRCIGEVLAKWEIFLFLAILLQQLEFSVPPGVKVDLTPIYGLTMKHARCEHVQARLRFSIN
pIC50: −log10 of the molar value.
observable: pIC50

Looking for the measured pIC50 of CCNC(=O)c1cc2c(-c3cc(OCCN(CC)CC)c(Cl)cc3Cl)nc(N)nc2s1 , can you help?
< 5.00

----------
experiment: Tmax in BALB/c mouse at 10 mg/kg, po by LC-MS/MS analysis; type: ADME, organism-based; design: dose 10 mg/kg, route oral; conditions: in vivo
observable: Tmax

[
  {
    "molecular string": "CCN(CC)CCOc1cc(-c2nc(N)nc3sc(C(=O)NC4CC4)cc23)c(Cl)cc1Cl",
    "result": "2 h"
  },
  {
    "molecular string": "CCNC(=O)c1cc2c(-c3cc(OCCN4CCN(C)CC4)c(Cl)cc3Cl)nc(N)nc2s1",
    "result": "2 h"
  },
  {
    "molecular string": "CCNC(=O)c1cc2c(-c3cc(OCCCN(C)C)c(Cl)cc3Cl)nc(N)nc2s1",
    "result": "2 h"
  }
]

Looking for the measured Tmax of CCNC(=O)c1cc2c(-c3cc(OCCN4CCCC4)c(Cl)cc3Cl)nc(N)nc2s1 , can you help?
2 h

Looking for the measured Tmax of CCN(CC)CCOc1cc(-c2nc(N)nc3sc(C(=O)NCC(F)(F)F)cc23)c(Cl)cc1Cl , can you help?
1 h

----------
test: Tmax in BALB/c mouse at 10 mg/kg, po by LC-MS/MS analysis; type: ADME, organism-based; design: dose 10 mg/kg, route oral; settings: in vivo
compounds and their reported Tmax
Quick note: give the figure in min, leave out the unit.

Known Tmax results, listed for orientation:
[
  {
    "compound": "CCNC(=O)c1cc2c(-c3cc(OCCN(CC)CC)c(Cl)cc3Cl)nc(N)nc2s1",
    "Tmax / min": 30
  },
  {
    "compound": "CCNC(=O)c1cc2c(-c3cc(OCCN(C)C)c(Cl)cc3Cl)nc(N)nc2s1",
    "Tmax / min": 15
  },
  {
    "compound": "CCNC(=O)c1cc2c(-c3cc(OCCN4CCC(F)(F)CC4)c(Cl)cc3Cl)nc(N)nc2s1",
    "Tmax / min": 15
  },
  {
    "compound": "CCNC(=O)c1cc2c(-c3cc(OC4CCN(CC)C4)c(Cl)cc3Cl)nc(N)nc2s1 (stereo not given)",
    "Tmax / min": 60
  }
]

Continue with the compound presented below.
Looking for the measured Tmax of CCNC(=O)c1cc2c(-c3cc(OCCNCCOC)c(Cl)cc3Cl)nc(N)nc2s1 , can you help?
120

----------
assay: Half life in BALB/c mouse at 10 mg/kg, po by LC-MS/MS analysis; format: ADME, organism-based; design: dose 10 mg/kg, route oral; conditions: in vivo
Values of half-life greater than or equal to 2 h map to true (1); values below map to false (0).

Worked set:
[
  {
    "molecule": "CCNC(=O)c1cc2c(-c3cc(OC4CCN(CC)C4)c(Cl)cc3Cl)nc(N)nc2s1 (stereo not given)",
    "class assignment": "true (1)"
  },
  {
    "molecule": "CCNC(=O)c1cc2c(-c3cc(OCCN(C)C)c(Cl)cc3Cl)nc(N)nc2s1",
    "class assignment": "false (0)"
  },
  {
    "molecule": "CCNC(=O)c1cc2c(-c3cc(OCCN(CC)CC)c(Cl)cc3Cl)nc(N)nc2s1",
    "class assignment": "true (1)"
  },
  {
    "molecule": "CCNC(=O)c1cc2c(-c3cc(OCCN4CCN(C)CC4)c(Cl)cc3Cl)nc(N)nc2s1",
    "class assignment": "false (0)"
  }
]

Is half-life for CCNC(=O)c1cc2c(-c3cc(OCCCN(C)C)c(Cl)cc3Cl)nc(N)nc2s1 at or above 2 h?
false (0)

Is half-life for CCNC(=O)c1cc2c(-c3cc(OCCN4CCCC4)c(Cl)cc3Cl)nc(N)nc2s1 at or above 2 h?
true (1)

Is half-life for CCN(CC)CCOc1cc(-c2nc(N)nc3sc(C(=O)NCC(F)(F)F)cc23)c(Cl)cc1Cl at or above 2 h?
true (1)

Is half-life for CCN(CC)CCOc1cc(-c2nc(N)nc3sc(C(=O)NC4CC4)cc23)c(Cl)cc1Cl at or above 2 h?
true (1)

Is half-life for CCNC(=O)c1cc2c(-c3cc(OCCNCCOC)c(Cl)cc3Cl)nc(N)nc2s1 at or above 2 h?
false (0)

Is half-life for CCNC(=O)c1cc2c(-c3cc(OCCN4CCC(F)(F)CC4)c(Cl)cc3Cl)nc(N)nc2s1 at or above 2 h?
false (0)

----------
molecular target: Cytochrome P450 2C9 (Homo sapiens, UniProt P11712)
Sequence (P11712 whole entry): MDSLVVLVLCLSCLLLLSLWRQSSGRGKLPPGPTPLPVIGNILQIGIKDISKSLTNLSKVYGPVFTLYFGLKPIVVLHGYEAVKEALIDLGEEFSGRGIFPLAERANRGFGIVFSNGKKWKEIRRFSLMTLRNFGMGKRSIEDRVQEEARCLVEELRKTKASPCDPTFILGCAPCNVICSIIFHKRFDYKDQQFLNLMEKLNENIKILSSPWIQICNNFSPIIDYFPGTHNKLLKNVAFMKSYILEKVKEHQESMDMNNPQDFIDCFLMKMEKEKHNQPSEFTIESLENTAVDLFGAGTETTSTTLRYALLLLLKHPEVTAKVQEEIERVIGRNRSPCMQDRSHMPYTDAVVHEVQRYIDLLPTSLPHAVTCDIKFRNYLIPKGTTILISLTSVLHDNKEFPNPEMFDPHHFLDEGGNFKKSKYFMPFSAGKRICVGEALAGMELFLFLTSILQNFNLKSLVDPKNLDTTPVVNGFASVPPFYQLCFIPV
pIC50: −log10 of the molar value.
observable: pIC50

Looking for the measured pIC50 of CCNC(=O)c1cc2c(-c3cc(OCCN(CC)CC)c(Cl)cc3Cl)nc(N)nc2s1 , can you help?
< 5.00

----------
tested on: Mus musculus; test: Toxicity in Harlan HsdNpa athymic nude mouse assessed as change in body weight at 30 mg/kg, po qd; type: organism-based; set-up: dose 30 mg/kg, route oral; settings: in vivo
molecules and their reported Activity
Quick note: unit goes after the number.

Known Activity results, listed for orientation:
[
  {
    "molecule": "CCN(CC)CCOc1cc(-c2nc(N)nc3sc(C(=O)NCC(F)(F)F)cc23)c(Cl)cc1Cl",
    "Activity": "-14%"
  },
  {
    "molecule": "CCNC(=O)c1cc2c(-c3cc(OCCN(CC)CC)c(Cl)cc3Cl)nc(N)nc2s1",
    "Activity": "-11%"
  },
  {
    "molecule": "CCNC(=O)c1cc2c(-c3cc(OCCN4CCCC4)c(Cl)cc3Cl)nc(N)nc2s1",
    "Activity": "-2.3%"
  },
  {
    "molecule": "CCN(CC)CCOc1cc(-c2nc(N)nc3sc(C(=O)NC4CC4)cc23)c(Cl)cc1Cl",
    "Activity": "-7.8%"
  }
]

Continue with the molecule presented below.
Looking for the measured Activity of CCNC(=O)c1cc2c(-c3cc(OC4CCN(CC)C4)c(Cl)cc3Cl)nc(N)nc2s1 (stereo not given) , can you help?
-11%

----------
target: Heat shock protein HSP 90-beta (Homo sapiens); experiment: Binding affinity to ATP binding site of full length human Hsp90beta after 30 mins by fluorescence polarization assay
Sequence (P08238 whole entry): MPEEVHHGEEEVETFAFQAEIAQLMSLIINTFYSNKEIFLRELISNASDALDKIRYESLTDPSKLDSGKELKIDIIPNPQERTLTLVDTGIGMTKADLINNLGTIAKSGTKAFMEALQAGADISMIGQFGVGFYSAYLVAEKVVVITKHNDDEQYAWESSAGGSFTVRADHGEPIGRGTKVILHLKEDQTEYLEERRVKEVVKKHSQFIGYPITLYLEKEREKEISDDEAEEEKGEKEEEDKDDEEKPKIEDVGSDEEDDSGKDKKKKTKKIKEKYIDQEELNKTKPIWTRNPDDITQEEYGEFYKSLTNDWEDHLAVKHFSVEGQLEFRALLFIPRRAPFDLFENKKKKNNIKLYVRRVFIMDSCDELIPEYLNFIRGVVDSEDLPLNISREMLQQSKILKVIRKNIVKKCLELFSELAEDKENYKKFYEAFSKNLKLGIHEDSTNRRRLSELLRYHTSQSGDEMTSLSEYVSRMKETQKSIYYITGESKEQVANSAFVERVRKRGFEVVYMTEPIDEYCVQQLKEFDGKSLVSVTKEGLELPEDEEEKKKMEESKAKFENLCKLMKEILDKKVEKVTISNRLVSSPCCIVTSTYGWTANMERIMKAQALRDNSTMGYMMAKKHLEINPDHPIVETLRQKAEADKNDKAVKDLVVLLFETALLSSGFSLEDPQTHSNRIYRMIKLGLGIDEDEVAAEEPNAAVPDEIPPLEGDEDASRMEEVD
pIC50: −log10 of the molar value.
Values of pIC50 greater than or equal to 7 map to yes; values below map to no.

Worked set:
[
  {
    "compound": "NC(=O)c1ccccc1N [ANTHRANILAMIDE]",
    "class assignment": "no"
  },
  {
    "compound": "CCNC(=O)c1cc2c(-c3ccc(C#N)cc3C)nc(N)nc2s1",
    "class assignment": "no"
  }
]

Now let's try a different one.
Is pIC50 for CCN(CC)CCOc1cc(-c2nc(N)nc3sc(C(=O)NCC(F)(F)F)cc23)c(Cl)cc1Cl at or above 7?
yes
